Biological target: UniProtKB P35372
Assay: μ-opioid receptor [35S]GTPγS functional assay, HEK-293 or CHO cells
Format: biochemical
MEASURED_METRIC: pEC50
Please note pEC50 is a logarithmic value: minus log10 of concentration in mol/L. Answer with that number alone.

Qu. What value of measured pEC50 is listed for CN1CC[C@@]2(C)c3cc(C(N)=O)ccc3C[C@@H]1C2(O)O ?
Ans. 4.77

---

Measured Emax, listed per entry for reference.
Target: μ-opioid receptor (Homo sapiens (Human))
Assay: μ-opioid receptor [35S]GTPγS functional assay, HEK-293 or CHO cells
Type: biochemical
Settings: HEK-293 or CHO cells; relative to DAMGO
Experimental: [^35S]GTPγS functional assays were conducted using freshly thawed μ-receptor membranes prepared in-house from a cell line expressing recombinant opioid receptor in a HEK-293, CHO or U-2 OS cell background, or purchased from a commercial source (Perkin Elmer, Shelton, Conn.; or DiscovRx, Fremont, Calif.). […] BetaScint scintillation cocktail (Perkin Elmer, Shelton, Conn.) was added (50 μl/well) and plates were counted using a Packard Top-Count for 1 min/well. […]
Include the unit right after the number.

Worked cases, Emax given:
1) CN1CCC2(C)c3cc(O)ccc3C[C@@H]1C2NC(=O)/C=C/c1ccoc1 (stereo in doubt): 2.33%
2) CCN(C(=O)Nc1ccc(C#N)cc1)[C@@H]1[C@H]2Cc3ccc(O)cc3[C@]1(C)CCN2C: 32%
3) CN1CC[C@@]2(C)c3cc(C(N)=O)ccc3C[C@@H]1[C@@H]2N(C)C(=O)Cc1ccccc1: 81.6%
4) CN1CC[C@@]2(C)c3cc(O)ccc3C[C@@H]1[C@H]2NCCc1ccc(S(C)(=O)=O)cc1: 16.7%
5) COc1ccc2c(c1)[C@]1(C)CCN(C)[C@H](C2)[C@@H]1N(C)C(=O)CN1CCNC(=O)C1: 43%
6) CN1CC[C@@]2(C)c3cc(C(=O)O)ccc3C[C@@H]1[C@H]2NCCc1ccc(S(C)(=O)=O)cc1: 0%
7) CN1CC[C@@]2(C)c3cc(C(N)=O)ccc3C[C@@H]1[C@H]2NCCc1ccccc1: 83.4%
8) CN1CC[C@@]2(C)c3cc(O)ccc3C[C@@H]1[C@H]2N(C)C(=O)Nc1nc2cc(F)ccc2s1: 1%

Qu. Give its Emax value. Item: CN1CC[C@@]2(C)c3cc(C(N)=O)ccc3C[C@@H]1[C@@H]2N(C)CCc1ccccc1
Ans. 97.4%

Qu. // returns reported Emax for input CN1CC[C@@]2(C)c3cc(O)ccc3C[C@@H]1[C@H]2N(CCO)CCc1ccc(F)cc1
Ans. 87%

---

Molecular target: μ-opioid receptor (Homo sapiens (Human), UniProt P35372)
Experiment: μ-opioid receptor [35S]GTPγS functional assay, HEK-293 or CHO cells
Assay type: biochemical
Conditions: HEK-293 or CHO cells; read-out: GTPγS μ EC50
Procedure: [^35S]GTPγS functional assays were conducted using freshly thawed μ-receptor membranes prepared in-house from a cell line expressing recombinant opioid receptor in a HEK-293, CHO or U-2 OS cell background, or purchased from a commercial source (Perkin Elmer, Shelton, Conn.; or DiscovRx, Fremont, Calif.). […] BetaScint scintillation cocktail (Perkin Elmer, Shelton, Conn.) was added (50 μl/well) and plates were counted using a Packard Top-Count for 1 min/well. […]
pEC50: −log10 of the molar value.
Label true (1) for high-side pEC50 (at or above 7) and false (0) for low-side pEC50 (below it).

1) CN1CC[C@@]2(C)c3cc(C(N)=O)ccc3C[C@@H]1[C@@H]2NCCc1ccccc1 [Compound 114]: false (0)

Qu. Exam item: decide whether the reported pEC50 for CN1CC[C@@]2(C)c3cc(O)ccc3C[C@@H]1[C@@H]2NCc1ccccc1 [Compound 108] is at least 7.
Ans. false (0)

Qu. Could you verify whether the entry CN1CC[C@@]2(C)c3cc(C(N)=O)ccc3C[C@@H]1[C@@H]2N(C)CCc1ccccc1 [Compound 123] shows pEC50 of no less than 7?
Ans. true (1)
